// reported binding signal per item
# tgt: GST-Nv-NF-kB (Cys allele) (Nematostella vectensis, UniProt E5G601 2-411)
# Sequence: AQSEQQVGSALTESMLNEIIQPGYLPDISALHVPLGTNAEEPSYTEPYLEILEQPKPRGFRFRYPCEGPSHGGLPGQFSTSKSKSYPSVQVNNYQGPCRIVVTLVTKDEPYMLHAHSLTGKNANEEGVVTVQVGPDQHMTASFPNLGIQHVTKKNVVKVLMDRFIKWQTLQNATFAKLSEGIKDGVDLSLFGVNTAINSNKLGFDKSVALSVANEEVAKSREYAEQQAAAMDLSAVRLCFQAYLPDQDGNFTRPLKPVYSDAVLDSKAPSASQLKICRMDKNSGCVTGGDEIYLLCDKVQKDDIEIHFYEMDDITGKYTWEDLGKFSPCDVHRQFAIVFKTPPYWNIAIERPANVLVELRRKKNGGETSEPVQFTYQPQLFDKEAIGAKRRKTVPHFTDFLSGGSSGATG
# experimentalDetails: protein-binding microarray (PBM); PBM: ~300 nM protein, 6 mM HEPES pH 7.8, 80 mM KCl, 0.5 mM EDTA, 0.5 mM EGTA, 6% glycerol, 35 ng/ul poly-dIdC, 1% milk, 1 h, room temperature; high values mean tight binding
# conditionSet: dsDNA, one strand shown

# sequenceInput, binding signal
data = [
    ("CCGATTAACATCACGGGACTCCCTGATGTTAATCGGGTCTTGATTCGCTTGACGCTGCTG", "4.06 z-score"),
    ("CCGATTAACATCAAGGGGGGTGCTGATGTTAATCGGGTCTTGATTCGCTTGACGCTGCTG", "3.89 z-score"),
    ("CCGATTAACATCACTACTTTCCCTGATGTTAATCGGGTCTTGATTCGCTTGACGCTGCTG", "3.89 z-score"),
]

====

# tgt: GST-Nv-NF-kB (Cys allele) (Nematostella vectensis, UniProt E5G601 2-411)
# Sequence: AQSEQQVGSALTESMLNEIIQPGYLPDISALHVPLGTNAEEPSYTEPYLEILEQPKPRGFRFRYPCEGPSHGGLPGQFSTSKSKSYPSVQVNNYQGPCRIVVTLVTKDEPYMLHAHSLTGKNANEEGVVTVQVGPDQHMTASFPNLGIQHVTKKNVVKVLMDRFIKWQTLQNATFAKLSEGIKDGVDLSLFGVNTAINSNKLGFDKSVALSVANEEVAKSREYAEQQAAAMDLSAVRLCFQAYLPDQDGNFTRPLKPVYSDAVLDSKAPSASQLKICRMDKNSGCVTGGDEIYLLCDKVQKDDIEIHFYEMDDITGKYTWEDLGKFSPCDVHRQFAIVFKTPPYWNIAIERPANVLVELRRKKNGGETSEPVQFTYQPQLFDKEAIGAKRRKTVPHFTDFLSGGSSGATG
# experimentalDetails: protein-binding microarray (PBM); PBM: ~300 nM protein, 6 mM HEPES pH 7.8, 80 mM KCl, 0.5 mM EDTA, 0.5 mM EGTA, 6% glycerol, 35 ng/ul poly-dIdC, 1% milk, 1 h, room temperature; high values mean tight binding
# conditionSet: dsDNA, one strand shown
Quick rule for you: binding signal under 9 z-score gets YES, anything else gets NO.

# sequenceInput, categoryLabel
rows = [
    ("CCGATTAACATCAGGGGACTATATGATGTTAATCGGGTCTTGATTCGCTTGACGCTGCTG", "YES"),
    ("CCGATTAACATCAAAAAACCCCCTGATGTTAATCGGGTCTTGATTCGCTTGACGCTGCTG", "NO"),
    ("CCGATTAACATCAAGAAATCCCCTGATGTTAATCGGGTCTTGATTCGCTTGACGCTGCTG", "NO"),
    ("CCGATTAACATCAAGGGATTCCCTGATGTTAATCGGGTCTTGATTCGCTTGACGCTGCTG", "YES"),
    ("CCGATTAACATCAAACCACCCCCTGATGTTAATCGGGTCTTGATTCGCTTGACGCTGCTG", "YES"),
    ("CCGATTAACATCAAGAGATCCCCTGATGTTAATCGGGTCTTGATTCGCTTGACGCTGCTG", "YES"),
]

====

# tgt: GST-Ap-NF-kB RHD (Exaiptasia pallida (Aiptasia), UniProt A0A913YAJ5 2-422)
# Sequence: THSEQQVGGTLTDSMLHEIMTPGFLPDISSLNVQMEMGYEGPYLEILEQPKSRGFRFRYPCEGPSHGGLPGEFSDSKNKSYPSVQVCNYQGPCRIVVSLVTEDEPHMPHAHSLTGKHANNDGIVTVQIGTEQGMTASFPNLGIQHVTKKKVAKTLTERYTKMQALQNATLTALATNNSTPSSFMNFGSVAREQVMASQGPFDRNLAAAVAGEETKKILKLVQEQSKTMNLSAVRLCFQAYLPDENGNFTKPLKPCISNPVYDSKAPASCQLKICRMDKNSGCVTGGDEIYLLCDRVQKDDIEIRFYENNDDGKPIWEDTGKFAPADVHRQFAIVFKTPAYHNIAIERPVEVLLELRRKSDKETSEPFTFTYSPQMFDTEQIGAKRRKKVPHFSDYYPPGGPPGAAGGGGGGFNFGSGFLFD
# experimentalDetails: protein-binding microarray (PBM); PBM: ~300 nM protein, 6 mM HEPES pH 7.8, 80 mM KCl, 0.5 mM EDTA, 0.5 mM EGTA, 6% glycerol, 35 ng/ul poly-dIdC, 1% milk, 1 h, room temperature; Ap Aiptasia and Nv Nematostella (sea anemones) / Co Capsaspora / Aq Amphimedon (sponge) / Dm Drosophila / Hu human; RHD is the Rel homology domain; high values mean tight binding
# conditionSet: dsDNA, one strand shown

# sequenceInput, binding signal [z-score]
data = [
    ("CCGATTAACATCAGGATTCCCCATGATGTTAATCGGGTCTTGATTCGCTTGACGCTGCTG", 9.56),
    ("CCGATTAACATCACTCATCCCCGTGATGTTAATCGGGTCTTGATTCGCTTGACGCTGCTG", 1.85),
    ("CCGATTAACATCAGGGGAGATTATGATGTTAATCGGGTCTTGATTCGCTTGACGCTGCTG", 6.83),
    ("CCGATTAACATCAGGGGTCCCCATGATGTTAATCGGGTCTTGATTCGCTTGACGCTGCTG", 4.7),
    ("CCGATTAACATCAAATACTCCCCTGATGTTAATCGGGTCTTGATTCGCTTGACGCTGCTG", 6.1),
    ("CCGATTAACATCAGGGGGGGAACTGATGTTAATCGGGTCTTGATTCGCTTGACGCTGCTG", 6.55),
    ("CCGATTAACATCAAATTTTTCCCTGATGTTAATCGGGTCTTGATTCGCTTGACGCTGCTG", 3.81),
    ("CCGATTAACATCAAGAAAACCCCTGATGTTAATCGGGTCTTGATTCGCTTGACGCTGCTG", 6.98),
    ("CCGATTAACATCAACGTTTCCCCTGATGTTAATCGGGTCTTGATTCGCTTGACGCTGCTG", 5.38),
    ("CCGATTAACATCAGGGGTATTTATGATGTTAATCGGGTCTTGATTCGCTTGACGCTGCTG", 5.75),
    ("CCGATTAACATCAGAAAATCACCTGATGTTAATCGGGTCTTGATTCGCTTGACGCTGCTG", 2.77),
    ("CCGATTAACATCAGGGGAGTCCATGATGTTAATCGGGTCTTGATTCGCTTGACGCTGCTG", 6.16),
    ("CCGATTAACATCAATTTTCCCCCTGATGTTAATCGGGTCTTGATTCGCTTGACGCTGCTG", 7.68),
    ("CCGATTAACATCAAAACGTCCCCTGATGTTAATCGGGTCTTGATTCGCTTGACGCTGCTG", 6.23),
    ("CCGATTAACATCAAGGTGTTTCCTGATGTTAATCGGGTCTTGATTCGCTTGACGCTGCTG", 1.56),
    ("CCGATTAACATCAGGGAAATTAATGATGTTAATCGGGTCTTGATTCGCTTGACGCTGCTG", 3.37),
    ("CCGATTAACATCAATTCCCCTGATGATGTTAATCGGGTCTTGATTCGCTTGACGCTGCTG", 6.84),
    ("CCGATTAACATCAATCTACCCCCTGATGTTAATCGGGTCTTGATTCGCTTGACGCTGCTG", 4.86),
    ("CCGATTAACATCACGTCCCCCCCTGATGTTAATCGGGTCTTGATTCGCTTGACGCTGCTG", 6.32),
    ("CCGATTAACATCAAGGGGATTTATGATGTTAATCGGGTCTTGATTCGCTTGACGCTGCTG", 7.79),
    ("CCGATTAACATCACGGTAATCCCTGATGTTAATCGGGTCTTGATTCGCTTGACGCTGCTG", 4.31),
    ("CCGATTAACATCAGCGAATTCCCTGATGTTAATCGGGTCTTGATTCGCTTGACGCTGCTG", 3.47),
    ("CCGATTAACATCAGGATTCCCCCTGATGTTAATCGGGTCTTGATTCGCTTGACGCTGCTG", 11.3),
    ("CCGATTAACATCACGGGGGGAAATGATGTTAATCGGGTCTTGATTCGCTTGACGCTGCTG", 6.31),
    ("CCGATTAACATCAGGCGATCCCCTGATGTTAATCGGGTCTTGATTCGCTTGACGCTGCTG", 5.05),
    ("CCGATTAACATCAGGAAATGCCCTGATGTTAATCGGGTCTTGATTCGCTTGACGCTGCTG", 1.98),
    ("CCGATTAACATCAAAAAGACCCCTGATGTTAATCGGGTCTTGATTCGCTTGACGCTGCTG", 4.67),
]

Reference source: paper PMC5700166
